ASSAY_TARGET: Hs_GSK3β (Homo sapiens)
Construct: host or cells: Sf9 insect cells (baculovirus)
Sequence (P49841 whole entry): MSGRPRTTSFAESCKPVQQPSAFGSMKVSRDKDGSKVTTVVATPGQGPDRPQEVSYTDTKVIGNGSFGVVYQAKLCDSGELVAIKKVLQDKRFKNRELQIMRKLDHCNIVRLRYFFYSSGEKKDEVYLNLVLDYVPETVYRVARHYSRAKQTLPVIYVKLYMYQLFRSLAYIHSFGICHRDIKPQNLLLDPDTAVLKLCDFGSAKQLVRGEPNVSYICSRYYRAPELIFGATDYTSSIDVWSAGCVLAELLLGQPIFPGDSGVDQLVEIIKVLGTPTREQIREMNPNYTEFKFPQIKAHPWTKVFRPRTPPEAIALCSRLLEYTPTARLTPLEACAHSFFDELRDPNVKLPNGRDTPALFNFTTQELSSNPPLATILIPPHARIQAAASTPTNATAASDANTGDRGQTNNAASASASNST
EXPERIMENT_SUMMARY: ADP-Glo kinase assay, primary screen
Type: biochemical
ASSAY_CONDITIONS: 10 µM, n=2; read-out: % of residual activity Hs_GSK3β
Field: class. Source value: remaining activity at 10 µM. Ranges: bottom end (below 40%), midrange (40% to below 60%), top end (60% or more)

Solved entries:
N[C@H]1CC[C@H](n2cc(COc3cccc4cnc(Nc5cccc(Cl)c5)nc34)nn2)CC1 [19a] | bottom end
CC(C)(C)OC(=O)N[C@H]1CC[C@H](n2cc(COc3cccc4cnc(Nc5cc(Cl)cc(Cl)c5)nc34)nn2)CC1 [18b] | bottom end
Cc1ccc(-n2cc(COc3cccc4cnc(Nc5cc(Cl)cc(Cl)c5)nc34)nn2)c([N+](=O)[O-])c1 | bottom end
N[C@H]1CC[C@@H](n2cc(COc3cccc4cnc(Nc5cc(Cl)cc(Cl)c5)nc34)nn2)CC1 [16b] | bottom end
N[C@H]1CC[C@H](n2cc(COc3cccc4cnc(Nc5cc(Cl)cc(Cl)c5)nc34)nn2)CC1 [19b] | bottom end

Qu. Textbook exercise: identify the category of the molecule given here, N[C@H]1CC[C@@H](n2cc(COc3cccc4cnc(Nc5cccc(Cl)c5)nc34)nn2)CC1 [16a] , according to its measured value.
Ans. midrange

Qu. Textbook exercise: identify the category of the molecule given here, CC(C)(C)OC(=O)N[C@H]1CC[C@@H](n2cc(COc3cccc4cnc(Nc5cccc(Cl)c5)nc34)nn2)CC1 [15a] , according to its measured value.
Ans. top end

* * *

ASSAY_TARGET: Hs_CDK5/p25 (Homo sapiens)
Construct: host or cells: bacteria
Sequence (Q00535 whole entry): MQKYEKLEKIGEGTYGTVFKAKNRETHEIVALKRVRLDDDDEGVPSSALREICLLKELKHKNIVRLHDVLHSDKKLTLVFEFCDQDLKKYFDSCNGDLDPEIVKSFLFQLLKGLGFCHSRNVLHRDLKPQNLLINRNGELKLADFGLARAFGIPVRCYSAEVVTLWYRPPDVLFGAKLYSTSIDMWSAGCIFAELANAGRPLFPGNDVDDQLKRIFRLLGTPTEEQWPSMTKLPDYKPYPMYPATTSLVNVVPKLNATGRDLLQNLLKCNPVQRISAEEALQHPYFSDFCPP
Sequence (Q15078 99-307 partner limits assumed): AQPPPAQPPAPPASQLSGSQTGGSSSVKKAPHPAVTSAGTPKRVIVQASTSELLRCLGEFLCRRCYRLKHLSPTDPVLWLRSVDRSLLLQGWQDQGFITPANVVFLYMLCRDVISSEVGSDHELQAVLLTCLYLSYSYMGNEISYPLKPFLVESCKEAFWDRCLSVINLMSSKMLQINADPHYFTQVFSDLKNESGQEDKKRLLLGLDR
EXPERIMENT_SUMMARY: ADP-Glo kinase assay, primary screen
Assay type: biochemical
ASSAY_CONDITIONS: 10 µM, n=2; read-out: % of residual activity Hs_CDK5/p25
Could you please mark label 1 for values of remaining activity at 10 µM below 60% and label 0 for values at or above it?

Solved entries:
O=C(O)c1ccc(-n2cc(COc3cccc4cnc(Nc5cccc(Cl)c5)nc34)nn2)c([N+](=O)[O-])c1 [12g] | label 0
Cc1ccc(-n2cc(COc3cccc4cnc(Nc5cc(Cl)cc(Cl)c5)nc34)nn2)c([N+](=O)[O-])c1 | label 0
O=[N+]([O-])c1cc(CO)ccc1-n1cc(COc2cccc3cnc(Nc4cccc(Cl)c4)nc23)nn1 [12e] | label 1
N[C@H]1CC[C@@H](n2cc(COc3cccc4cnc(Nc5cc(Cl)cc(Cl)c5)nc34)nn2)CC1 [16b] | label 1
CC(C)(C)OC(=O)N[C@H]1CC[C@H](n2cc(COc3cccc4cnc(Nc5cc(Cl)cc(Cl)c5)nc34)nn2)CC1 [18b] | label 0

Qu. hey, is remaining activity at 10 µM for O=[N+]([O-])c1cc(Br)ccc1-n1cc(COc2cccc3cnc(Nc4cccc(Cl)c4)nc23)nn1 [12d] lower than 60% or not?
Ans. label 0

* * *

EXPERIMENT_SUMMARY: cytotoxic assay, nuclei count (Hoechst, HCS)
Type: cell-based
ASSAY_CONDITIONS: human, HuH7 cells (hepatocellular carcinoma); 48 h treatment; read-out: Cytotoxic studies IC50 HuH7
PROPERTY: IC50 at 48 h (µM)
Give the number; µM is assumed, so skip it.

These solved cases illustrate the format of a correct answer.
N[C@H]1CC[C@@H](n2cc(COc3cccc4cnc(Nc5cc(Cl)cc(Cl)c5)nc34)nn2)CC1 [16b] | 2
CC(C)(C)OC(=O)N[C@H]1CC[C@H](n2cc(COc3cccc4cnc(Nc5cccc(Cl)c5)nc34)nn2)CC1 [18a] | 4
CC(C)(C)OC(=O)N[C@H]1CC[C@@H](n2cc(COc3cccc4cnc(Nc5cccc(Cl)c5)nc34)nn2)CC1 [15a] | 7
O=[N+]([O-])c1cc(Br)ccc1-n1cc(COc2cccc3cnc(Nc4cccc(Cl)c4)nc23)nn1 [12d] | 2

Form: compound = CC(C)(C)OC(=O)N[C@H]1CC[C@@H](n2cc(COc3cccc4cnc(Nc5cc(Cl)cc(Cl)c5)nc34)nn2)CC1 [15b] ; IC50 at 48 h = 20

Form: compound = Cc1ccc(-n2cc(COc3cccc4cnc(Nc5ccccc5)nc34)nn2)c([N+](=O)[O-])c1 [7a] ; IC50 at 48 h = 3

* * *

ASSAY_TARGET: HsCLK4 (Homo sapiens)
Construct: purchased Eurofins (contract assay)
Sequence (Q9HAZ1 whole entry): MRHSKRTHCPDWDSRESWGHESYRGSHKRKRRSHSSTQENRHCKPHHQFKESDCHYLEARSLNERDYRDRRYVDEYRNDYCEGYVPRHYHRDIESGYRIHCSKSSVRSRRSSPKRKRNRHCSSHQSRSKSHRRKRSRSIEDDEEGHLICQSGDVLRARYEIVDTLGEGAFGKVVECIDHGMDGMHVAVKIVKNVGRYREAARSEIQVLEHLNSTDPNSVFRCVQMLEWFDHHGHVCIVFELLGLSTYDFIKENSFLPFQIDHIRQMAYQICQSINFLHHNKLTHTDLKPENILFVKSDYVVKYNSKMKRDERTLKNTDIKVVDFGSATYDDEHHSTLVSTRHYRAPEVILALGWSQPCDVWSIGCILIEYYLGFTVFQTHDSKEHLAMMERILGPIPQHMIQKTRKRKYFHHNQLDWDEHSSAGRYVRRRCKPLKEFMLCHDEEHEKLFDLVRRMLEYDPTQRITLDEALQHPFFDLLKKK
EXPERIMENT_SUMMARY: kinase inhibition study by Eurofins
Type: biochemical
ASSAY_CONDITIONS: duplicate
Listing of recorded pIC50 by entry.
Answer as the number alone; pIC50 is minus log10 of concentration in mol/L.

These solved cases illustrate the format of a correct answer.
Cc1ccc(-n2cc(COc3cccc4cnc(Nc5cc(Cl)cc(Cl)c5)nc34)nn2)c([N+](=O)[O-])c1 | 6.42
N[C@H]1CC[C@@H](n2cc(COc3cccc4cnc(Nc5cc(Cl)cc(Cl)c5)nc34)nn2)CC1 [16b] | 7.08
O=[N+]([O-])c1cc(CO)ccc1-n1cc(COc2cccc3cnc(Nc4cccc(Cl)c4)nc23)nn1 [12e] | 6.71

Proceeding to the next compound to report its pIC50.
Form: compound = O=C(O)c1ccc(-n2cc(COc3cccc4cnc(Nc5cccc(Cl)c5)nc34)nn2)c([N+](=O)[O-])c1 [12g] ; pIC50 = 7.26

* * *

ASSAY_TARGET: Hs_HASPIN (Homo sapiens)
Construct: host or cells: bacteria
Sequence (Q8TF76 whole entry): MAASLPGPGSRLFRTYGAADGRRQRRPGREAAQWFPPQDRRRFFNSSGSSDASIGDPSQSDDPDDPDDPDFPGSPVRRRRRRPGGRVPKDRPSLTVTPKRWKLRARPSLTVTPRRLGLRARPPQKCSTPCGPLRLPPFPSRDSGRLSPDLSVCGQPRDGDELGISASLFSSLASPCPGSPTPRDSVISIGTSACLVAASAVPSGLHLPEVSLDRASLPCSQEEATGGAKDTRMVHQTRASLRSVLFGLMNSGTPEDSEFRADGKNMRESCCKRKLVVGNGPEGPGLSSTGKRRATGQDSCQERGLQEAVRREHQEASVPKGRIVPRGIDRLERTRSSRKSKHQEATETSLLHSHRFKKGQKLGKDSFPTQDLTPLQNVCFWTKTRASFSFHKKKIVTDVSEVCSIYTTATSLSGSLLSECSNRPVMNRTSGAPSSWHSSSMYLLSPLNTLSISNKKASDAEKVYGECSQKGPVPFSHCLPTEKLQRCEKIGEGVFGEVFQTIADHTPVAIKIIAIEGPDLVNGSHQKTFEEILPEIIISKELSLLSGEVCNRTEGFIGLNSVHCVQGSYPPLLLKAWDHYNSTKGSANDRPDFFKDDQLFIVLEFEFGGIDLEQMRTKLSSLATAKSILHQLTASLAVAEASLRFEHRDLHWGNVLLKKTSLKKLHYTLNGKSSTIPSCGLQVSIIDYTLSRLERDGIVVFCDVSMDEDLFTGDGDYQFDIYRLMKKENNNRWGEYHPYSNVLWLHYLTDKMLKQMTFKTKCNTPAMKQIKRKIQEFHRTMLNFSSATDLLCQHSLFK
EXPERIMENT_SUMMARY: ADP-Glo kinase assay, primary screen
Type: biochemical
ASSAY_CONDITIONS: 10 µM, n=2; read-out: % of residual activity Hs_HASPIN
Listing of recorded remaining activity at 10 µM by entry.
Give the number; % is assumed, so skip it.

These solved cases illustrate the format of a correct answer.
CC(C)(C)OC(=O)N[C@H]1CC[C@H](n2cc(COc3cccc4cnc(Nc5cccc(Cl)c5)nc34)nn2)CC1 [18a] | 70
CC(C)(C)OC(=O)N[C@H]1CC[C@@H](n2cc(COc3cccc4cnc(Nc5cccc(Cl)c5)nc34)nn2)CC1 [15a] | 74
Cc1ccc(-n2cc(COc3cccc4cnc(Nc5cc(Cl)cc(Cl)c5)nc34)nn2)c([N+](=O)[O-])c1 [7b] | 46
N[C@H]1CC[C@@H](n2cc(COc3cccc4cnc(Nc5cc(Cl)cc(Cl)c5)nc34)nn2)CC1 [16b] | 76
N[C@H]1CC[C@@H](n2cc(COc3cccc4cnc(Nc5cccc(Cl)c5)nc34)nn2)CC1 [16a] | 31

Form: compound = O=[N+]([O-])c1cc(CO)ccc1-n1cc(COc2cccc3cnc(Nc4cccc(Cl)c4)nc23)nn1 [12e] ; remaining activity at 10 µM = 88

Form: compound = CC(C)(C)OC(=O)N[C@H]1CC[C@H](n2cc(COc3cccc4cnc(Nc5cc(Cl)cc(Cl)c5)nc34)nn2)CC1 [18b] ; remaining activity at 10 µM = 53

Form: compound = COC(=O)c1ccc(-n2cc(COc3cccc4cnc(Nc5cccc(Cl)c5)nc34)nn2)c([N+](=O)[O-])c1 [12f] ; remaining activity at 10 µM = 76

* * *

EXPERIMENT_SUMMARY: cytotoxic assay, nuclei count (Hoechst, HCS)
Assay type: cell-based
ASSAY_CONDITIONS: human, MDA-MB-468 cells (breast carcinoma); 48 h treatment; read-out: Cytotoxic studies IC50 MDA-MB-468
Listing of recorded IC50 at 48 h by entry.
Give the number; µM is assumed, so skip it.

N[C@H]1CC[C@H](n2cc(COc3cccc4cnc(Nc5cc(Cl)cc(Cl)c5)nc34)nn2)CC1 [19b] | 1.3

Form: molecule = N[C@H]1CC[C@@H](n2cc(COc3cccc4cnc(Nc5cc(Cl)cc(Cl)c5)nc34)nn2)CC1 [16b] ; IC50 at 48 h = 1

Form: molecule = O=[N+]([O-])c1cc(CO)ccc1-n1cc(COc2cccc3cnc(Nc4cccc(Cl)c4)nc23)nn1 [12e] ; IC50 at 48 h = 4

Form: molecule = O=[N+]([O-])c1cc(O)ccc1-n1cc(COc2cccc3cnc(Nc4cccc(Cl)c4)nc23)nn1 [12c] ; IC50 at 48 h = 4

* * *

ASSAY_TARGET: MmCLK1 (Mus musculus, UniProt P22518)
Construct: host or cells: bacteria
Sequence (P22518 whole entry): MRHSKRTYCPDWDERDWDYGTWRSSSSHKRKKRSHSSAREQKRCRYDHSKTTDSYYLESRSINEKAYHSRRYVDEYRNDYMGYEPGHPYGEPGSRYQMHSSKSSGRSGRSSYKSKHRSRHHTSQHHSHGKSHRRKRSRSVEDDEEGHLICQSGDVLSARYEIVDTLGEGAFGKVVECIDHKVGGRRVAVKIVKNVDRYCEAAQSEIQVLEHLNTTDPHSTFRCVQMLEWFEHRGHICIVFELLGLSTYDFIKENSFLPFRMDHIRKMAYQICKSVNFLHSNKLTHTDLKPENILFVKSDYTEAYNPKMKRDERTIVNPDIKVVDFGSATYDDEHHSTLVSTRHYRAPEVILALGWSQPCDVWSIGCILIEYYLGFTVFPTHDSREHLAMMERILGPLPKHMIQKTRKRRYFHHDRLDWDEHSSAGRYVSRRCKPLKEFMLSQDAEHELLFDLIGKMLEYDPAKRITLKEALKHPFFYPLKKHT
EXPERIMENT_SUMMARY: ADP-Glo kinase assay
Format: biochemical
ASSAY_CONDITIONS: 1 µM, n=2; read-out: % of residual activity Mm_CLK1
Listing of recorded remaining activity at 1 µM by entry.
Give the number; % is assumed, so skip it.

These solved cases illustrate the format of a correct answer.
N[C@H]1CC[C@@H](n2cc(COc3cccc4cnc(Nc5cccc(Cl)c5)nc34)nn2)CC1 [16a] | 17
N[C@H]1CC[C@@H](n2cc(COc3cccc4cnc(Nc5cc(Cl)cc(Cl)c5)nc34)nn2)CC1 [16b] | 19

Form: molecule = CC(C)(C)OC(=O)N[C@H]1CC[C@@H](n2cc(COc3cccc4cnc(Nc5cccc(Cl)c5)nc34)nn2)CC1 [15a] ; remaining activity at 1 µM = 98

Form: molecule = Cc1ccc(-n2cc(COc3cccc4cnc(Nc5ccccc5)nc34)nn2)c([N+](=O)[O-])c1 [7a] ; remaining activity at 1 µM = 43
